- Target or test system: recombinant human FAAH (MBP-ΔTM-FAAH) (Homo sapiens)
- Construct: The region of the gene corresponding to amino acids 34 to 579 was cloned into pMAL-c4x
- Sequence (O00519 34-579, stated change not applied): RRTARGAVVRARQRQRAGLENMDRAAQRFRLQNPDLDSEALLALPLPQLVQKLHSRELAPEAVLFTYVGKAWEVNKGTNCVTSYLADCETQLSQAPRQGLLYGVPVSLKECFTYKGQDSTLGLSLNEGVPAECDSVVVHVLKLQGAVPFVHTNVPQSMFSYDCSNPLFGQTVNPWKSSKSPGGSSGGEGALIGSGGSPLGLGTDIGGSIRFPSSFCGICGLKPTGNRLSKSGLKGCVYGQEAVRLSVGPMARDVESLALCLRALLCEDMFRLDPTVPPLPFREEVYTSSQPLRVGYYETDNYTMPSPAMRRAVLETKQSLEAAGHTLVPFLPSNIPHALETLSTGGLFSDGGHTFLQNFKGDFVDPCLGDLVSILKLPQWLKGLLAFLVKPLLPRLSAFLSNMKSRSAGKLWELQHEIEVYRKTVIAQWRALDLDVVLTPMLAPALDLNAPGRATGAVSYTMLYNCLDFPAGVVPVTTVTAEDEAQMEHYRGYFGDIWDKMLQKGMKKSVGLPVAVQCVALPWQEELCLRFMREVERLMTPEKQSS
- Assay comment: FAAH assay, fluorogenic substrate D-AMC
- Test conditions: D-AMC 5 μM, pH 8.0, 37° C.

{"Compound": "O=C(Oc1ccccc1)N1CCC(c2nc(C3=NOC4(CCCc5ccccc54)C3)cs2)CC1 (stereo not shown) [Compound 52]", "IC50, nM": 29}

###

- System: female Cr1:CD1(ICR) mice
- Assay comment: Tail immersion assay in mice (analgesic potential, in combination with anandamide)
- Test conditions: 10 mg/kg i.p. plus anandamide 50 mg/kg
Result type: analgesic effects at the rate tested (conclusion)

{"Molecule": "O=C(Oc1ccccc1)N1CCC(c2nc(C3=NOC(c4ccccc4)C3)cs2)CC1 (stereo not shown)", "Result": "analgesic effects"}
{"Molecule": "O=C(Nc1ccccc1)N1CCC(c2nc(C3=NOC(c4ccccc4)C3)cs2)CC1 (stereo not shown)", "Result": "no analgesic effects"}
{"Molecule": "O=C(Nc1nccs1)N1CCC(c2nc(C3=NOC(c4ccccc4)C3)cs2)CC1 (stereo not shown)", "Result": "no analgesic effects"}
{"Molecule": "O=C(Oc1ccccc1Cl)N1CCC(c2nc(C3=NOC(c4ccccc4)C3)cs2)CC1 (stereo not shown)", "Result": "analgesic effects"}

The measurements presented in this section are drawn from patent US20130045948A1.
